- Test system: 171881-019-R-J1-PDC tumor spheroid viability
- protocol details: Anticancer human tumor 171881-019-R-J1-PDC patient-derived invasive breast carcinoma cell line growth inhibition [PI3K]
- measurement setup: curve of first compound; second compound 0.00316 µM; spheroids with HUVEC and MSC
pIC50: −log10 of the molar value.
observed property: pIC50

// known answers, use as guide
>  <compound>
CC(Cn1ccc(-c2ccc(C#N)c(Cl)c2)n1)NC(=O)c1cc(C(C)O)[nH]n1 (stereo not drawn) + COc1c(OCCCN2CCOCC2)ccc2c3n(c(=NC(=O)c4cnc(N)nc4)nc12)CCN3

>  <pIC50>
< 5.00

$$$$
>  <compound>
CC1(C)CCC(CN2CCN(c3ccc(C(=O)NS(=O)(=O)c4ccc(NCC5CCOCC5)c([N+](=O)[O-])c4)c(Oc4cnc5[nH]ccc5c4)c3)CC2)=C(c2ccc(Cl)cc2)C1 + COc1c(OCCCN2CCOCC2)ccc2c3n(c(=NC(=O)c4cnc(N)nc4)nc12)CCN3

>  <pIC50>
< 5.00

$$$$

Query string: State, for 171881-019-R-J1-PDC tumor spheroid viability, measured pIC50 of the compound listed here: Cn1ncnc1[C@H]1c2n[nH]c(=O)c3cc(F)cc(c23)N[C@@H]1c1ccc(F)cc1 + CC(Nc1ccc2c(c1)OCCn1cc(N3C(=O)OCC3C(F)F)nc1-2)C(N)=O
Result string: < 7.00

----------
- Test system: 171881-019-R-J1-PDC tumor spheroid viability
- protocol details: Anticancer human tumor 171881-019-R-J1-PDC cell line growth inhibition [PI3K];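 further: spheroids exposed to compound for 7 days before viability read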
- measurement setup: curve of first compound; second compound 0.01 µM; spheroids with HUVEC and MSC
observed property: IC50

>  <compound>
Cn1nccc1Nc1nccc(-c2ccn(C(CO)c3ccc(Cl)c(F)c3)c(=O)c2)n1 (stereo not drawn) + COc1c(OCCCN2CCOCC2)ccc2c3n(c(=NC(=O)c4cnc(N)nc4)nc12)CCN3

>  <assay target>
171881-019-R-J1-PDC tumor spheroid viability

>  <IC50>
< 31.6 nM

$$$$
>  <compound>
CC(C)n1nc(-c2ccc3oc(N)nc3c2)c2c(N)ncnc21 + COc1c(OCCCN2CCOCC2)ccc2c3n(c(=NC(=O)c4cnc(N)nc4)nc12)CCN3

>  <assay target>
171881-019-R-J1-PDC tumor spheroid viability

>  <IC50>
< 0.316 nM

$$$$

# context switch: different compound, same IC50
Query string: Tell us which IC50 value is on record for CC(=O)c1c(C)c2cnc(Nc3ccc(N4CCNCC4)cn3)nc2n(C2CCCC2)c1=O + CC(Nc1ccc2c(c1)OCCn1cc(N3C(=O)OCC3C(F)F)nc1-2)C(N)=O
Result string: > 100 nM

----------
- Test system: 171881-019-R-J1-PDC tumor spheroid viability
- protocol details: Anticancer human tumor 171881-019-R-J1-PDC cell line growth inhibition [PI3K];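 further: spheroids exposed to compound for 7 days before viability read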
- measurement setup: curve of first compound; second compound 0.01 µM; spheroids with HUVEC and MSC
pIC50: −log10 of the molar value.
// pIC50 lookup, one value per entry

// known answers, use as guide
>  <compound>
CC(Cn1ccc(-c2ccc(C#N)c(Cl)c2)n1)NC(=O)c1cc(C(C)O)[nH]n1 (stereo unspecified) + CC(Nc1ccc2c(c1)OCCn1cc(N3C(=O)OCC3C(F)F)nc1-2)C(N)=O

>  <observed>
< 5.00

$$$$
>  <compound>
Cn1ncnc1[C@H]1c2n[nH]c(=O)c3cc(F)cc(c23)N[C@@H]1c1ccc(F)cc1 + CC(Nc1ccc2c(c1)OCCn1cc(N3C(=O)OCC3C(F)F)nc1-2)C(N)=O

>  <observed>
< 7.00

$$$$
>  <compound>
Cn1cnc2c(F)c(Nc3ccc(Br)cc3Cl)c(C(=O)NOCCO)cc21 + COc1c(OCCCN2CCOCC2)ccc2c3n(c(=NC(=O)c4cnc(N)nc4)nc12)CCN3

>  <observed>
> 8.02

$$$$
>  <compound>
CC(=O)c1c(C)c2cnc(Nc3ccc(N4CCNCC4)cn3)nc2n(C2CCCC2)c1=O + COc1c(OCCCN2CCOCC2)ccc2c3n(c(=NC(=O)c4cnc(N)nc4)nc12)CCN3

>  <observed>
> 9.50

$$$$
>  <compound>
CC(C)NCC(C(=O)N1CCN(c2ncnc3c2C(C)CC3O)CC1)c1ccc(Cl)cc1 (stereo unspecified) + COc1c(OCCCN2CCOCC2)ccc2c3n(c(=NC(=O)c4cnc(N)nc4)nc12)CCN3

>  <observed>
> 7.50

$$$$

# context switch: different compound, same pIC50
Query string: State, for 171881-019-R-J1-PDC tumor spheroid viability, measured pIC50 of the compound listed here: CC(Cn1ccc(-c2ccc(C#N)c(Cl)c2)n1)NC(=O)c1cc(C(C)O)[nH]n1 (stereo unspecified) + COc1c(OCCCN2CCOCC2)ccc2c3n(c(=NC(=O)c4cnc(N)nc4)nc12)CCN3
Result string: > 7.50
